Tested on: NCI-H23 lung
Assay: NCI tumour cell line growth inhibition, 48 h; in the data active = GI50 below about 0.43 µM; inactive = the rest
Just give me one of these, please: active, inactive

Examples with answers:
COc1cc2c(cc1OCCCNC(=O)c1cccc3c(=O)c4ccccc4[nH]c13)N=C[C@@H]1CCCN1C2=O; active
CCSc1ncnc2c1ncn2C1OC(CO)C(O)C1O (stereo not given); inactive

Q: Hi, do you know how COc1cc(-n2cc(-c3ccc(F)cc3)[nH]c2=O)cc(OC)c1OC came out in this test?
Result: inactive

Q: Hi, do you know how O=C(N[C@@H](c1ccc(Cl)c(Cl)c1)C1CNC1)c1ccc2cnccc2c1 came out in this test?
Result: active

Q: Hi, do you know how CC[C@H]1[C@@H]2C=C[C@@H]3[C@H]4C/C=C\C(=O)NCCC[C@@H]5NC(=O)/C(=C(O)/C=C/[C@@H]4C[C@@H]3[C@H]2C[C@H]1C)C5=O came out in this test?
Result: inactive

* * *

Kindly supply the reported TGI values for the records listed here.
Test system: HOP-92 NSCLC
Assay: NCI tumour cell line growth inhibition, 48 h
Answers are plain numbers, in µM.

Completed entries (count: 3):
CC1(C)N=C(N)N=C(N)N1c1ccc(CCc2ccccc2)cc1; 79.7
CC(=O)Oc1c2c(c(O)c3ccccc13)C(n1cnc3c(ncn3C3OC(CO)C4OC(C)(C)OC43)c1=N)CCC2 (centres undefined); 39.1
C=C(C)[C@@H]1CC[C@]2(C)[C@H](CC=C3[C@@H]4CC(C)(C)CC[C@]4(C(N)=O)CC[C@]32C)[C@@]1(C)CCC#N; 6.62

Let us examine a further case.
Q: GET /values?readout=TGI&system=HOP-92 NSCLC&item= N#CC(C(=O)C(=O)C(C#N)c1ccc(Br)cc1)c1ccc(Br)cc1 (centres undefined)
Result: 26.4

* * *

Tested on: 786-0 renal
Assay: NCI tumour cell line growth inhibition, 48 h; in the data active = GI50 below about 0.43 µM; inactive = the rest
Just give me one of these, please: true = active, false = inactive

Examples with answers:
CCOC(=O)C(Cc1ccc(CCCC(=O)NCCC(=O)Nc2ccc3nc(C)sc3c2)cc1)C(=O)OCC; false
Nc1c(C(=O)Nc2ccncc2)sc2nc3c(cc12)CCCCCCCC3; false
COc1ccc2c(c1)C(=O)c1c-2c(N2CCN(C(=O)CNCCNCCO)CC2)nc2ccccc12; false

Q: Hi, do you know how C=C(Cl)C(Br)(CCl)CCC(Br)C(C)(C)Cl (centres undefined) came out in this test?
Result: false

Q: Hi, do you know how COc1cc(F)ccc1-c1ncnc(Nc2cccc(CS(C)(=N)=O)c2)n1 (centres undefined) came out in this test?
Result: false

Q: Hi, do you know how COc1ccc(/C=C2/N=C(c3ccccc3)N(c3c(C)n(C)n(-c4ccccc4)c3=O)C2=O)cc1OC came out in this test?
Result: false

Q: Hi, do you know how O=C1Nc2ccccc2/C1=N\[O-].O=C1Nc2ccccc2/C1=N\[O-].[Cu+2] came out in this test?
Result: false

Q: Hi, do you know how COc1ccc(-c2nc3ccc(-c4nc5ccc(N6CCN(c7ccccc7)CC6)cc5[nH]4)cc3[nH]2)cc1OC came out in this test?
Result: false

Q: Hi, do you know how COc1cc2c3c(n(C)c(=O)c2cc1OC)-c1cc2c(cc1/C3=C\CN)OCO2 came out in this test?
Result: true

* * *

Tested on: SN12C renal
Experiment: NCI tumour cell line growth inhibition, 48 h
Kindly supply the reported TGI values for the records listed here.

Cc1nn(-c2ccccc2)c2c1C(c1ccc(Cl)cc1)NC(=S)N2 (stereo not given); 47.5 µM

// each compound listed below needs its TGI
1. O=c1cc(-c2cccc3ccccc23)[nH]c2ncccc12
2. CCOC(=O)Nc1ccc(-c2nc(-c3cccc(OCCN4CCOCC4)c3)c(-c3ccnc(Br)c3)[nH]2)cc1
3. CN(C)CC[PH+](c1ccccc1)c1ccccc1.CN(C)CC[PH+](c1ccccc1)c1ccccc1.[Cl-].[Pd+2]
4. Cn1cc(NC(=O)Nc2cc(C(=O)Nc3cc(C(=O)Nc4ccc(S(=O)(=O)O)c5cc(S(=O)(=O)O)ccc45)n(C)c3)n(C)c2)cc1C(=O)Nc1cc(C(=O)Nc2ccc(S(=O)(=O)O)c3cc(S(=O)(=O)O)ccc23)n(C)c1
5. CN1CCN(C(=S)N2CCN(C)CC2)CC1
6. C/C=C(/C)C(=O)O[C@@H]1CCN2CC[C@H](COC(=O)/C(=C/C)CO)C12 (stereo not given in full)
7. CO/N=C(\COc1ccc2c(c1)oc(=O)c1cc(OC)ccc12)c1ccc(OC)cc1
8. Cn1ccc(C(=O)NCCN(CCNC(=O)c2ccn(C)c(=O)c2O)CCNC(=O)c2cccc(=O)n2O)c(O)c1=O

Result:
1: > 100 µM; 2: > 100 µM; 3: > 100 µM; 4: > 100 µM; 5: > 100 µM; 6: > 100 µM; 7: > 100 µM; 8: > 100 µM

// each compound listed below needs its TGI
1. CN(C)CCC(=O)c1ccccc1
2. O=C(/C=C/c1cc2ccccc2o1)N1CCN(c2ccccn2)CC1
3. C=C(C)[C@@H]1CC[C@]2(C)[C@H](CC=C3[C@@H]4CC(C)(C)CC[C@]4(C(N)=O)CC[C@]32C)[C@@]1(C)CCC#N
4. CC(C)(C)OC(=O)[C@H]1CCC(=S)N1Cc1ccccc1
5. NC(=O)C(C(N)=O)=C(O)C(=O)/C=C(\O)c1ccccc1

Result:
1. > 70.1 µM
2. > 100 µM
3. 3.7 µM
4. > 100 µM
5. > 100 µM

// each compound listed below needs its TGI
1. COc1c(OC[C@H](O)CN2CCOCC2)ccc2c3n(c(=NC(=O)c4cccnc4C)nc12)CCN3
2. CCn1c2ccccc2c2cc(NC(=O)Nc3ccc([N+](=O)[O-])cc3C)ccc21

Result:
["> 50 µM", "> 100 µM"]
